From: PubChem BioAssay (NCI)

test system: HS 578T breast; assay: NCI-60 one-dose screen, 48 h; conditions: 10 µM unless noted
About 83,000 compounds went through this panel and 20% of them were active in at least one assay; those are over-represented in the sample as a whole. Calls of active or inactive are those of the source. Rule for the calls: active = growth percent below 10; inactive = the rest.
API: response.call in active, inactive

Here's what some known entries look like.
# COMPOUND, LABEL
records = [
    ("COc1ccc(C2CC(c3ccc4ccccc4c3)=NN2/C=C2\\SC(=S)N(NC(=O)Cc3ccccc3Nc3c(Cl)cccc3Cl)C2=O)cc1 (centres undefined)", "inactive"),
    ("c1ccc(-c2c(-c3ccccc3)[n+](Cc3ccc4ccccc4c3)c(-c3ccc(-c4nc5ccccc5s4)cc3)n2Cc2ccc3ccccc3c2)cc1", "active"),
    ("OCc1ccc(N2CCc3cccc(F)c3C2)cc1Cl", "inactive"),
]

-- ask Give the logged outcome of this assay for the following compound: COc1ccc(CN2c3ccccc3Oc3ccccc32)cc1O
-- reply inactive

-- ask Give the logged outcome of this assay for the following compound: O=C1/C(=C(/c2ccccc2)N2CCOCC2)Cc2ccccc21
-- reply active

---

system: RXF 393 renal; assay: NCI-60 one-dose screen, 48 h (100 = growth as untreated, 0 = no growth, -100 = all killed); conditions: 10 µM unless noted
About 83,000 compounds went through this panel and 20% of them were active in at least one assay; those are over-represented in the sample as a whole.
ENDPOINT_NAME: growth (%)
Write down the numeric answer in % and omit the unit.

-- ask Entry Cn1ccnc1C(=O)/C=C/c1ccccc1 has what growth?
-- reply 12.9

-- ask Entry COc1ccc(-n2nc(C)c3c(Nc4ccc(NC(=O)Nc5ccc(Cl)c(C(F)(F)F)c5)cc4)ncnc32)cc1 has what growth?
-- reply -35.7

-- ask Entry COc1cccc(/C=C2\Oc3cc(OCCN4CCCC4)ccc3C2=O)c1 has what growth?
-- reply 97.5

-- ask Entry Cc1ccc(C2Oc3ccccc3C3CC(c4cccs4)=NN32)cc1 (stereo not given) has what growth?
-- reply 101

-- ask Entry COc1cccc(C2=NN3C(C2)c2cc(Br)cc(OC)c2OC32CCN(Cc3ccccc3)CC2)c1 (stereo not given) has what growth?
-- reply 115

-- ask Entry CCOC(=O)C(C)(C#N)C1C=CCCC1 (stereo not given) has what growth?
-- reply 98.8

-- ask Entry COc1ccc(C(=O)COc2ccc(/C=C3\COc4ccc(OC)cc4C3=O)cc2)cc1 has what growth?
-- reply 21.7

-- ask Entry O=[N+]([O-])c1cnc(N2CCN(CC3CC3)CC2)nc1N1CCN(CC2CC2)CC1 has what growth?
-- reply 73.1

-- ask Entry COc1cc(-c2nc3ccccc3[nH]2)ccc1OCC(=O)N=Nc1c(O)[nH]c2ccc(Cl)cc12 has what growth?
-- reply -56.5

-- ask Entry COc1ccc(CN2c3ccccc3Sc3ccccc32)cc1O has what growth?
-- reply -9.86

-- ask Entry O=c1cc(CSc2nnc(-c3ccc(F)cc3)o2)c2ccc3ccccc3c2o1 has what growth?
-- reply 107

-- ask Entry CC(C)(C)c1cc(/C=N\NC(=O)/C=C/C=C/c2ccc3c(c2)OCO3)c(O)c(C(C)(C)C)c1 has what growth?
-- reply 94.6

-- ask Entry COc1ccc(Nc2cc(C)nc(N3CCN(c4ccnc5cc(Cl)ccc45)CC3)n2)cc1 has what growth?
-- reply 51.4

-- ask Entry COc1cc2nc(N3CCCC3)nc(Nc3ccccc3)c2cc1OC has what growth?
-- reply -84.5

-- ask Entry COc1cc(-c2nn(-c3ccc(Br)cc3)cc2C(=O)O)ccc1O has what growth?
-- reply 109

-- ask Entry C#CC(F)(F)[C@]1(O)CC[C@H]2[C@@H]3CCC4=CC(=O)CCC4=C3[C@@H](c3ccc(C(C)=O)cc3)C[C@@]21C has what growth?
-- reply 85.4

-- ask Entry COc1ccc(/C=C/C(=O)c2ccc(O)c(CN3CCN(c4cc5c(cc4F)c(=O)c(C(=O)O)cn5C4CC4)CC3)c2)cc1 has what growth?
-- reply 28.3

-- ask Entry Cc1nn(-c2ccc(F)cc2)c2ncnc(Oc3ccc(NC(=O)Nc4ccc(Cl)c(C(F)(F)F)c4)cc3)c12 has what growth?
-- reply 107

-- ask Entry Cc1nc(/N=C(\N)NC(=O)Nc2cccc([N+](=O)[O-])c2)sc1C has what growth?
-- reply 91.4

-- ask Entry COc1ccc(/C=C/c2nc3ccccc3nc2/C=C/c2ccc(OC)cc2)cc1 has what growth?
-- reply 80.3

-- ask Entry CN1CCN(c2ccc(Nc3c4ccccc4nc4ccccc34)cc2)CC1 has what growth?
-- reply 110

-- ask Entry COc1cc(/C=C/C(=O)c2c(C)oc3nc[nH]c(=O)c23)cc(OC)c1OC has what growth?
-- reply 66.3

-- ask Entry Cc1nc(Nc2ccc(F)c(Cl)c2)sc1C(=O)O has what growth?
-- reply 15.4

-- ask Entry FC(F)(F)c1[nH]ncc1-c1nc2ccc3n[nH]c(C#Cc4cccnc4)c3c2c2c1CCCC2 has what growth?
-- reply 21.4

---

tested on: A498 renal; assay: NCI-60 one-dose screen, 48 h; settings: 10 µM unless noted
The panel holds about 83,000 compounds, 20% with a hit somewhere; the sample as a whole holds those more often. Activity calls are given as the source filed them. The calls were made as follows: active = growth percent below 10; inactive = the rest.
API: response.call in active, inactive

Here's what some known entries look like.
# MOLECULE, LABEL
data = [
    ("Cc1ccc(C(SCC(N)C(=O)O)(c2ccccc2)c2ccc(C)cc2)cc1 (centres undefined)", "inactive"),
    ("CSc1nc(NCCO)c(C#N)c(-c2cccc([N+](=O)[O-])c2)n1", "inactive"),
    ("CCN1CCN(c2nc(NCCCNc3ccnc4cc(Cl)ccc34)c3ccccc3n2)CC1", "inactive"),
    ("Cc1ccc(C2=NN3C(C2)c2cc(Br)ccc2OC32CCN(Cc3ccccc3)CC2)o1 (centres undefined)", "inactive"),
    ("C=C(C)[C@@H]1CC[C@]2(C(=O)OC)CC[C@]3(C)[C@H](CC[C@@H]4[C@@]5(C)C/C(=C/c6cccc(I)c6)C(=O)C(C)(C)[C@@H]5CC[C@]43C)[C@@H]12", "inactive"),
    ("C=CCSSc1ncnc2c1ncn2C1OC(CO)C(O)C1O (centres undefined)", "inactive"),
]

-- ask Give the logged outcome of this assay for the following molecule: CC1(C)CC[C@]2(C(=O)Nc3ccccn3)CC[C@]3(C)C(=CC[C@@H]4[C@@]5(C)C/C(=C/c6cccnc6)C(=O)C(C)(C)[C@@H]5CC[C@]43C)[C@H]2C1
-- reply inactive

-- ask Give the logged outcome of this assay for the following molecule: Nc1ccc(S(=O)(=O)O)c2ccc(N=Nc3ccc(N=Nc4ccc(S(=O)(=O)O)cc4)c4ccccc34)c(O)c12
-- reply inactive

-- ask Give the logged outcome of this assay for the following molecule: O=C(Nc1ccc(Cl)cc1)c1cc2cc(F)ccc2cc1O
-- reply active

-- ask Give the logged outcome of this assay for the following molecule: COc1ccc2c(c1)C(=O)/C(=C/c1cccnc1)CC2
-- reply inactive

-- ask Give the logged outcome of this assay for the following molecule: Clc1ccc2c(NCCNc3nc(N4CCCCC4)nc4ccccc34)ccnc2c1
-- reply inactive

-- ask Give the logged outcome of this assay for the following molecule: OC(c1cc2cc(Cl)c(Cl)cc2c2cc(C(F)(F)F)ccc12)C1CCCCN1 (centres undefined)
-- reply inactive

---

system: MDA-MB-231 breast; test: NCI-60 one-dose screen, 48 h; conditions: 10 µM unless noted
Compounds without any hit were thinned out: in the full panel of roughly 83,000, 20% have a hit. The source made the active and inactive calls. The calls were made as follows: active = growth percent below 10; inactive = the rest.
API: response.call in active, inactive

Here's what some known entries look like.
# MOLECULE, LABEL
records = [
    ("Nc1n[nH]c2ccc([C@@H]3Nc4cc5c(cc4[C@H]4C6CCC(C6)[C@@H]34)C(=O)NC5)cc12 (some centres undefined)", "inactive"),
    ("O=C1c2c(O)cc(O)cc2-c2c(-c3ccc(O)cc3)oc3cc(O)cc1c23", "inactive"),
    ("Cc1nn(-c2ccc(F)cc2)c2ncnc(Nc3ccc(NC(=O)Nc4ccc(Cl)c(C(F)(F)F)c4)cc3)c12", "inactive"),
]

-- ask Give the logged outcome of this assay for the following molecule: O=C(Nc1ccc(Cl)cc1)c1cc2cc(F)ccc2cc1O
-- reply active

-- ask Give the logged outcome of this assay for the following molecule: CSc1nc(NCCO)c(C#N)c(-c2cccc([N+](=O)[O-])c2)n1
-- reply inactive

-- ask Give the logged outcome of this assay for the following molecule: CC/C=C\C[C@H](O)C/C=C1/C(=O)C=C[C@@]1(C)C/C=C\CCCC(=O)OC
-- reply inactive

-- ask Give the logged outcome of this assay for the following molecule: O=C1C=C(O)C(=O)C(CC2=C(O)C(=O)C=C(O)C2=O)=C1O
-- reply inactive

-- ask Give the logged outcome of this assay for the following molecule: Cc1ccc2c(c1)C(=O)/C(=C/c1cccc(OCC(=O)c3ccc(Cl)cc3)c1)CS2
-- reply inactive

-- ask Give the logged outcome of this assay for the following molecule: COc1cc(-c2nc3ccccc3[nH]2)ccc1OCc1nnc(-c2ccc(CC(C)C)cc2)o1
-- reply inactive
